assay: in vivo; conditions: female, athymic BALB/c nude, mouse, iv, total radioactivity, tumour uptake in A431-CCK2R xenografts
Starred links: 1 amine or outer side, 2 acyl side, 3 side chain; linkers in the order of their positions; H or OH if unused. Non-standard residues stand in square brackets, D forms with d. Residues, ends and D or L forms follow the SMILES beside them. *: point of attachment. DOTA = O=C(O)CN1CCN(CC(=O)O)CCN(CC(=O)*)CCN(CC(=O)O)CC1; d(γGlu) = O=C(O)[C@@H](CCC(=O)[*:2])N[*:1]; 1Nal = N[C@@H](Cc1cccc2ccccc12)C(=O)O; NMeNle = CCCC[C@H](NC)C(=O)O; βAla = NCCC(=O)O
Reported values of tissue uptake at 1 h for individual entries
# number only, unit %ID/g dropped from output

{"compound": "CCCC[C@@H](C(=O)N[C@@H](CC(=O)O)C(=O)N[C@@H](Cc1cccc2ccccc12)C(N)=O)N(C)C(=O)[C@H](Cc1c[nH]c2ccccc12)NC(=O)CCNC(=O)CC(O)CNC(=O)CC(O)CNC(=O)CN1CCN(CC(=O)O)CCN(CC(=O)O)CCN(CC(=O)O)CC1 (single isomer, unassigned) [^68Ga-DOTA-MGSA, metal not drawn]", "result.units": "%ID/g", "tissue uptake at 1 h": 27}

Param item = CCCC[C@@H](C(=O)N[C@@H](CC(=O)O)C(=O)N[C@@H](Cc1cccc2ccccc12)C(N)=O)N(C)C(=O)[C@H](Cc1c[nH]c2ccccc12)NC(=O)CCNC(=O)CC[C@@H](NC(=O)CC[C@@H](NC(=O)CN1CCN(CC(=O)O)CCN(CC(=O)O)CCN(CC(=O)O)CC1)C(=O)O)C(=O)O [^68Ga-DOTA-MGSC, metal not drawn] ({DOTA-d(γGlu)-d(γGlu)-βAla}-W[NMeNle]D[1Nal]-NH2) ; retrieve measured tissue uptake at 1 h.
36

---

test: Biodistribution of ^177Lu-labelled peptidomimetics at 4 h p.i. in xenografted nude mice; settings: female, athymic BALB/c nude, mouse, tumour and kidney, iv, total radioactivity
readout.label: tissue to tissue ratio at 4 h
Could you respond with only the numeric value?

Quick one: tissue to tissue ratio at 4 h for CCCC[C@@H](C(=O)N[C@@H](CC(=O)O)C(=O)N[C@@H](Cc1cccc2ccccc12)C(N)=O)N(C)C(=O)[C@H](Cc1c[nH]c2ccccc12)NC(=O)CNC(=O)[C@H](Cc1ccc(O)cc1)NC(=O)[C@H](C)NC(=O)[C@@H](CCC(=O)O)NC(=O)CN1CCN(CC(=O)O)CCN(CC(=O)O)CCN(CC(=O)O)CC1 [^177Lu-DOTA-MGS5, metal not drawn] ?
7

---

percentage of intact radioligand present in the blood listing for selected compounds.
test: Stability against enzymatic degradation in vivo (radio-HPLC of blood); design: species or system BALB/c mice; settings: ^177Lu-labelled, 30 min p.i.
Non-standard residues stand in square brackets, D forms with d. Residues, ends and D or L forms follow the SMILES beside them. *: point of attachment. DOTA = O=C(O)CN1CCN(CC(=O)O)CCN(CC(=O)*)CCN(CC(=O)O)CC1; 1Nal = N[C@@H](Cc1cccc2ccccc12)C(=O)O; NMeNle = CCCC[C@H](NC)C(=O)O
Response body: numeric value in %, unit text excluded.

Before answering, review these 3 worked examples.
{"compound": "CCCC[C@@H](C(=O)N[C@@H](CC(=O)O)C(=O)N[C@@H](Cc1cccc2ccccc12)C(N)=O)N(C)C(=O)[C@H](Cc1c[nH]c2ccccc12)NC(=O)CNC(=O)[C@H](Cc1ccc(O)cc1)NC(=O)[C@H](C)NC(=O)[C@@H](CCC(=O)O)NC(=O)CN1CCN(CC(=O)O)CCN(CC(=O)O)CCN(CC(=O)O)CC1 [^177Lu-DOTA-MGS5, metal not drawn]", "result.units": "%", "readout.value": 77.0}
{"compound": "CCCC[C@@H](C(=O)N[C@@H](CC(=O)O)C(=O)N[C@@H](Cc1cccc2ccccc12)C(N)=O)N(C)C(=O)[C@H](Cc1c[nH]c2ccccc12)NC(=O)CNC(=O)[C@H](Cc1ccc(O)cc1)NC(=O)[C@@H]1CCCN1C(=O)[C@@H](CCC(=O)O)NC(=O)CN1CCN(CC(=O)O)CCN(CC(=O)O)CCN(CC(=O)O)CC1 [^177Lu-DOTA-MGS8, metal not drawn] ({DOTA}-[dE]PYGW[NMeNle]D[1Nal]-NH2; C-terminus assumed)", "result.units": "%", "readout.value": 56.8}
{"compound": "CCCC[C@H](NC(=O)[C@H](Cc1c[nH]c2ccccc12)NC(=O)CNC(=O)[C@H](Cc1ccc(O)cc1)NC(=O)[C@H](C)NC(=O)[C@@H](CCC(=O)O)NC(=O)[C@@H](CCC(=O)O)NC(=O)[C@@H](CCC(=O)O)NC(=O)[C@@H](CCC(=O)O)NC(=O)[C@@H](CCC(=O)O)NC(=O)[C@@H](CCC(=O)O)NC(=O)CN1CCN(CC(=O)O)CCN(CC(=O)O)CCN(CC(=O)O)CC1)C(=O)N[C@@H](CC(=O)O)C(=O)N[C@@H](Cc1ccccc1)C(N)=O [^177Lu-PP-F11N, metal not drawn]", "result.units": "%", "readout.value": 12.7}

// below: percentage of intact radioligand present in the blood requested for another compound
Would you mind telling me what percentage of intact radioligand present in the blood value was observed for CSCC[C@H](NC(=O)[C@H](Cc1c[nH]c2ccccc12)NC(=O)CNC(=O)[C@H](Cc1ccc(O)cc1)NC(=O)[C@H](C)NC(=O)[C@@H](CCC(=O)O)NC(=O)[C@@H](CCC(=O)O)NC(=O)[C@@H](CCC(=O)O)NC(=O)[C@@H](CCC(=O)O)NC(=O)[C@@H](CCC(=O)O)NC(=O)[C@@H](CCC(=O)O)NC(=O)CN1CCN(CC(=O)O)CCN(CC(=O)O)CCN(CC(=O)O)CC1)C(=O)N[C@@H](CC(=O)O)C(=O)N[C@@H](Cc1ccccc1)C(N)=O [^177Lu-PP-F11, metal not drawn] ?
5.5
